Data provenance is the supplement of paper PMC10065799.

- MEASUREMENT TARGET: Hck (UniProt P08631)
- Sequence (P08631 whole entry, looked up): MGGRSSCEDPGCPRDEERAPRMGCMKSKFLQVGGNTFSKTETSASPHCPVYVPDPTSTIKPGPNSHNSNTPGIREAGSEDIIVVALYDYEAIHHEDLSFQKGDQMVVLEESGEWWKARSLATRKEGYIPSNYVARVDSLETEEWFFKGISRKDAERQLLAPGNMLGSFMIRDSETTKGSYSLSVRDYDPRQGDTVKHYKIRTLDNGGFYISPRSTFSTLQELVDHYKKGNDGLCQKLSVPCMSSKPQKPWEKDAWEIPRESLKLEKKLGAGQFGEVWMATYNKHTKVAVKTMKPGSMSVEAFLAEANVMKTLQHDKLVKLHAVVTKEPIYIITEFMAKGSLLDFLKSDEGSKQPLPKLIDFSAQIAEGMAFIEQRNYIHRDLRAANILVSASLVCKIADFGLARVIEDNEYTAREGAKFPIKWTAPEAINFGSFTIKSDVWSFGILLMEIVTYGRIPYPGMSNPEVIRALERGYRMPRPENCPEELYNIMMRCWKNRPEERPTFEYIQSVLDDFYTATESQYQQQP
- PROTOCOL DESCRIPTION: phosphorylation enrichment, bacterial display (enrichment ratio); higher = better substrate or ligand; peptides without Tyr show the background;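 further: 11-residue human phosphosite peptides and single-mutation variants displayed on the E. coli surface, counted by deep sequencing, each peptide's frequency after selection divided by its frequency in the unselected input library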;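 further: frequency after pTyr selection over input frequency; kinase dosed for 20-30% of maximal phosphorylation in three min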
Measured phosphorylation enrichment determines class: A = under 0.5, B = from 0.5 up to 0.6, C = 0.6 and over

Answered examples (5):
ITEM SEQUENCE: EVGRVYLFLQP [ITGA2B_Y360]
CLASS ASSIGNMENT: A

ITEM SEQUENCE: ALKKPYSVLFK [RPF2_Y59_G60S_YF]
CLASS ASSIGNMENT: A

ITEM SEQUENCE: QDEHGYISLCF [HSPB1_Y133_R136L]
CLASS ASSIGNMENT: C

ITEM SEQUENCE: KKHFSYAWPFY [BRDT_Y291]
CLASS ASSIGNMENT: A

ITEM SEQUENCE: TRTDAYAVSSF
CLASS ASSIGNMENT: A

Ask: Consider NIEPIYLNMLL [ATR_Y317_V316I] . To which phosphorylation enrichment class does it belong?
Reply: C

Ask: What do we get for EAEPYYRSLRD [NPHS1_Y1139] ?
Reply: B

Ask: What do we get for SLIDGYFRLTE [JAK2_Y372_A377E_YF] ?
Reply: A

###

- MEASUREMENT TARGET: EPHB2 (UniProt P29323)
- Sequence (P29323 whole entry, looked up): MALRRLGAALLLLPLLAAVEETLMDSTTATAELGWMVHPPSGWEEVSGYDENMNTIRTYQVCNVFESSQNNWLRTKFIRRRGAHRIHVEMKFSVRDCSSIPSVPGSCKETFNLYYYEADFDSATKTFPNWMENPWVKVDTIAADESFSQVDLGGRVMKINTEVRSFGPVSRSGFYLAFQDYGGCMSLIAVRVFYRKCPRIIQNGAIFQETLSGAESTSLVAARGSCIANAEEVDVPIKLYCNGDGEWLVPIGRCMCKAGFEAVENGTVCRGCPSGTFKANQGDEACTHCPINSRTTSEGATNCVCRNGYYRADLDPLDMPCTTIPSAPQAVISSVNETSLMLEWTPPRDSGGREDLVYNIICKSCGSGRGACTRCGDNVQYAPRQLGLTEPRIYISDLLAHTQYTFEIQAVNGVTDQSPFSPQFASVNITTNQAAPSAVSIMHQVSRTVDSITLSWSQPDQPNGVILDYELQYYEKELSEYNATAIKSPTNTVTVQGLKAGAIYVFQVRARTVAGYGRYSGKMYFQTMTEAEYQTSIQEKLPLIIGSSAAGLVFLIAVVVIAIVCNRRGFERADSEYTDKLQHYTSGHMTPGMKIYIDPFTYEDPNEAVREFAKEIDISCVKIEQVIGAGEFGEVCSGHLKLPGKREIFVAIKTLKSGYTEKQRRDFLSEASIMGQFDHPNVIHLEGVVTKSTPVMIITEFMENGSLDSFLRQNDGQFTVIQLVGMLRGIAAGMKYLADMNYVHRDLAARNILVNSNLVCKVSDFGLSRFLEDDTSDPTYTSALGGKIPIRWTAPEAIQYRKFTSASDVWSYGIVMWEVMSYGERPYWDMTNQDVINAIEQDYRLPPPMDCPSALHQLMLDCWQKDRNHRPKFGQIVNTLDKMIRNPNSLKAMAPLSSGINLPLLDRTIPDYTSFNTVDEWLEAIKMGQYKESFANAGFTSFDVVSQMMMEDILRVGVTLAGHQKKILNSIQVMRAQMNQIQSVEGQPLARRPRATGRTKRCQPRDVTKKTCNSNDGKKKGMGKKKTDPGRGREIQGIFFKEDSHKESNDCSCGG
- PROTOCOL DESCRIPTION: phosphorylation enrichment, bacterial display (enrichment ratio); higher = better substrate or ligand; peptides without Tyr show the background
The entries below come with measured phosphorylation enrichment values attached.
Form: value (number only, do not type unit).

The examples below pair each entry with its known result.
ITEM SEQUENCE: RKVLVYDKLNV [ROR2_Y624_N620K]
MEASUREMENT TARGET: EPHB2 (UniProt P29323)
MEASURED VALUE: 0.794

ITEM SEQUENCE: DFPGIYSGYDD [POLR1C_Y33_N32I]
MEASUREMENT TARGET: EPHB2 (UniProt P29323)
MEASURED VALUE: 0.652

ITEM SEQUENCE: AIIGIYILRDD [CDH23_Y2949]
MEASUREMENT TARGET: EPHB2 (UniProt P29323)
MEASURED VALUE: 0.788

ITEM SEQUENCE: WFKKFYDANFD [MAPRE2_Y158_YF]
MEASUREMENT TARGET: EPHB2 (UniProt P29323)
MEASURED VALUE: 0.374

ITEM SEQUENCE: LISVSYDDWDY [GRIN2A_Y281]
MEASUREMENT TARGET: EPHB2 (UniProt P29323)
MEASURED VALUE: 0.827

ITEM SEQUENCE: VGTKWYMAPEV [ACVRL1_Y375_R374W]
MEASUREMENT TARGET: EPHB2 (UniProt P29323)
MEASURED VALUE: 1.93

Ask: Need phosphorylation enrichment of KKRRSYGNSSD [SELENOK_Y52] , thanks.
Reply: 0.394

Ask: What do we get for GGQEDYDRLRP [RAC3_Y64_A59G] ?
Reply: 0.691

Ask: What do we get for SVTCTYSPALF [TP53_Y126_N131Y_YF] ?
Reply: 0.694

Ask: What do we get for PMFTKYGNSLL [RPGRIP1L_Y196] ?
Reply: 0.643

Ask: What do we get for KMATAYIRRMS [BCO1_Y264] ?
Reply: 0.495
